Where do these numbers come from? They come from ChEMBL document CHEMBL5230118.

# Tested on: Human alphaherpesvirus 3
# MEASUREMENT_PROTOCOL: Antiviral activity against clinical isolate VZV
# Type: functional, organism-based
PROPERTY_MEASURED: pIC50
Give bare numbers, as −log10 of the molar value.

Inquiry: Provide measured pIC50 on Human alphaherpesvirus 3 for CC#Cc1cn([C@@H]2O[C@H](CO)[C@@H](O)[C@@H]2O)c(=O)[nH]c1=O [NETIVUDINE] please.
Reply text: 6.00

* * *

# MEASUREMENT_PROTOCOL: in vivo
# MEASUREMENT_CONDITIONS: mouse
PROPERTY_MEASURED: half-life (min)
One number for each entry, in min.

Inquiry: Report measured half-life; entry is O=c1[nH]cc(F)c(=O)[nH]1
Reply text: 16
